// provenance: the supplement of paper PMC10567573

B1: PCMTD2 (parent)
chain: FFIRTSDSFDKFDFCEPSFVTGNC

- Variants of: B1
- experiment: protein stability index of a GFP-peptide fusion (GPS, HEK-293T) (PSI 1-6); higher = more stable;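 further: lentivirally expressed fusions sorted by FACS into six bins by GFP to DsRed ratio, PSI derived from sequencing read proportions per bin multiplied by bin number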
- experimental_conditions: c terminus: a fixed tail appended
Kind request: treat 2 as inclusive, so protein stability index at 2 or higher is Met, anything lower is Not met.

Worked set:
mutation_label: R4F
discrete_label: Met
//
mutation_label: S6R
discrete_label: Met
//
mutation_label: T21A
discrete_label: Met
//
mutation_label: C15W
discrete_label: Met
//
mutation_label: D13A
discrete_label: Met

Kindly determine if protein stability index recorded for "C15F" is above or exactly 2.
Met

Kindly determine if protein stability index recorded for "V20I" is above or exactly 2.
Met

Kindly determine if protein stability index recorded for "V20Q" is above or exactly 2.
Not met

Kindly determine if protein stability index recorded for "T21M" is above or exactly 2.
Met

Kindly determine if protein stability index recorded for "N23Q" is above or exactly 2.
Met

Kindly determine if protein stability index recorded for "F1A" is above or exactly 2.
Not met

Kindly determine if protein stability index recorded for "C24K" is above or exactly 2.
Not met

Kindly determine if protein stability index recorded for "D7L" is above or exactly 2.
Met
